Data credit: patent US20220089784A1

# subject.of.test: T1, BoNT/B HC (C-terminal domain of the BoNT/B heavy chain, recombinant) (Clostridium botulinum, UniProt P10844 853-1291)
# T1 sequence: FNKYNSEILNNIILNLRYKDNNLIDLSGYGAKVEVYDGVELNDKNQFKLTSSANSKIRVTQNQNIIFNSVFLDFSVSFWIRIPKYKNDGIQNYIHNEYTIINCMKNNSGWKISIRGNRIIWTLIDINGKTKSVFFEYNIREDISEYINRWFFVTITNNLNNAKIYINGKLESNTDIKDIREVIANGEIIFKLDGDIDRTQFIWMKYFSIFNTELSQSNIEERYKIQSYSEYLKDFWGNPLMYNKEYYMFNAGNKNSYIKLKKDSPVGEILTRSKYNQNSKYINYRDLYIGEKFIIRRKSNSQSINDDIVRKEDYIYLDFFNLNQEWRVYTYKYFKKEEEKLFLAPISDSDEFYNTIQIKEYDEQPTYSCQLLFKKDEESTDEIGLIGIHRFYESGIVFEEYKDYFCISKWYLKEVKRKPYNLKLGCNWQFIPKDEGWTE
# test: yeast scFv FACS
experimental.endpoint: pKd
# pKd is unitless: minus log10 of the molar concentration; print number only

So, 26B2 scFv (scFv, mouse) scFv: DVQLQESGPELVKPGASVKISCKASGYTFADYYINWVKQSHGKSLEWIGDFNPNNGDHSYNQKFKDKATLTVDESSNTAYMELRSLTSEDSAVYYCTREFYYYFDVWGTGTSVTVSSVDLKSGGSTSGSGKPGSGEGSSGSARDIEMTQTPAIMSASPGEKVTMTCSASSSVSSRYLHWYQQKSGASPKLWIYGTSNLASGVPARFSGSGSGTSYSLTISNVEAEDAATYYCQQYHSDPLTFGAGTKLEIK ? Its pKd was 10.07
